- Tested on: hMPV-GFP virus
- measurementNotes: microbe, parasite or virus in culture
- Format: cell-based, human metapneumovirus
- experimentalParameters: read-out: hMPV EC50; VERO cells infected with hMPV-GFP, 48 hrs, GFP-expressing cells counted
assayMetric: EC50

Examples with answers:
| molecule | EC50 |
| --- | --- |
| Cn1nc(-c2ncccn2)cc1C(=O)N1C[C@H]2[C@H](Oc3cc(C(C)(C)N)cc(-c4ccc(C(F)(F)F)cc4)n3)[C@@]2(C)C1 (single isomer, unassigned; enantiomer 2) [Example 110B] | > 0.1 µM |
| Cc1nn(-c2ncccn2)cc1C(=O)N1C[C@H]2[C@H](Oc3cc(C(C)(C)N)cc(-c4ccc(F)c(F)c4)n3)[C@@]2(C)C1 (single isomer, unassigned; enantiomer 1) [Example 106A] | > 0.1 µM |

Proceed to the following item.
Assign EC50 to the following record: Cn1nc(-c2ncccn2)cc1C(=O)N1C[C@H]2[C@H](Oc3cc(C(C)(C)N)cc(-c4ccc(C(F)(F)F)cc4)n3)[C@@]2(C)C1 (single isomer, unassigned; enantiomer 1) [Example 110A]
0.01 to 0.1 µM
